Molecular target: NAD-dependent protein deacetylase sirtuin-1 (Homo sapiens) (UniProt Q96EB6)
Sequence (Q96EB6 whole entry): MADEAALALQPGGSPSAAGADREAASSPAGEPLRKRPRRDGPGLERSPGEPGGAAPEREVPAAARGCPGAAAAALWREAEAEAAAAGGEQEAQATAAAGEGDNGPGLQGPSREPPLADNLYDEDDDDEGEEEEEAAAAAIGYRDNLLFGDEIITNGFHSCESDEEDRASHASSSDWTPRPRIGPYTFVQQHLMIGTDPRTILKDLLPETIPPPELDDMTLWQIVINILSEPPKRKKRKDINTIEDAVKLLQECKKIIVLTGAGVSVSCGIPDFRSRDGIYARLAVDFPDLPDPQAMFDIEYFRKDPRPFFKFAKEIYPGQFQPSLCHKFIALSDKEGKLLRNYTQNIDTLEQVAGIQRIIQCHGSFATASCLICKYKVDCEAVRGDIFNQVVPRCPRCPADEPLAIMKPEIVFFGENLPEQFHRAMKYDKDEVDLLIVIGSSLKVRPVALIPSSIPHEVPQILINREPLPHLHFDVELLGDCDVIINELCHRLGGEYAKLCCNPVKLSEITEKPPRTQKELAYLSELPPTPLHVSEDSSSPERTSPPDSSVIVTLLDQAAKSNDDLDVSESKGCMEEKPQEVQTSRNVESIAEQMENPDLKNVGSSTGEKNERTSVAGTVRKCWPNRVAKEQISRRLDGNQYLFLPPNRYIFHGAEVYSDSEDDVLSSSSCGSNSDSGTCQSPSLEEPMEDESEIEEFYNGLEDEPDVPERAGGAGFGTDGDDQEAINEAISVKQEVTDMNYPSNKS
Assay: Activation of SIRT1 (unknown origin) after 45 mins by NAD/NADH enzyme-based fluorometric assay
The source made the active and inactive calls. The calls are words filed in the database; no cut-off is given here.
Your reply should match one of these outcome classes. active, inactive

# count of solved cases: 6
compound="CC(C)=CCC[C@](C)(O)[C@H]1CC[C@]2(C)[C@@H]1[C@H](O)C[C@@H]1[C@@]3(C)CC[C@H](O)C(C)(C)[C@@H]3[C@@H](O[C@@H]3O[C@H](CO)[C@@H](O)[C@H](O)[C@H]3O)C[C@]12C [GINSENOSIDE RH1]" assignedclass=active
compound=CC(C)=CCC[C@@](C)(O)[C@H]1CC[C@]2(C)[C@@H]1[C@H](O)C[C@@H]1[C@@]3(C)CC[C@H](O)C(C)(C)[C@@H]3[C@@H](O)C[C@]12C assignedclass=active
compound="C=C(CCC=C(C)C)[C@H]1CC[C@]2(C)[C@@H]1[C@H](O)C[C@@H]1[C@@]3(C)CC[C@H](O[C@@H]4O[C@H](CO)[C@@H](O)[C@H](O)[C@H]4O[C@@H]4O[C@H](CO)[C@@H](O)[C@H](O)[C@H]4O)C(C)(C)[C@@H]3CC[C@]12C [GISENOSIDE RK1]" assignedclass=active
compound=CC(C)=CC/C=C(\C)[C@H]1CC[C@]2(C)[C@@H]1[C@H](O)C[C@@H]1[C@@]3(C)CC[C@H](O)C(C)(C)[C@@H]3[C@@H](O[C@@H]3O[C@H](CO)[C@@H](O)[C@H](O)[C@H]3O[C@@H]3O[C@@H](C)[C@H](O)[C@@H](O)[C@H]3O)C[C@]12C assignedclass=inactive
compound=CC(C)=CCC[C@@](C)(O)[C@H]1CC[C@]2(C)[C@@H]1[C@H](O)C[C@@H]1[C@@]3(C)CC[C@H](O)C(C)(C)[C@@H]3[C@@H](O[C@@H]3O[C@H](CO)[C@@H](O)[C@H](O)[C@H]3O)C[C@]12C assignedclass=inactive
compound=CC(C)=CCC[C@@](C)(O)[C@H]1CC[C@]2(C)[C@@H]1[C@H](O)C[C@@H]1[C@@]3(C)CC[C@H](O)C(C)(C)[C@@H]3CC[C@]12C assignedclass=active

In this assay, the call recorded for `CC(C)=CC/C=C(\C)[C@H]1CC[C@]2(C)[C@@H]1[C@H](O)C[C@@H]1[C@@]3(C)CC[C@H](O)C(C)(C)[C@@H]3[C@@H](O)C[C@]12C` was what? active

In this assay, the call recorded for `CC(C)=CCC[C@](C)(O)[C@H]1CC[C@]2(C)[C@@H]1[C@H](O)C[C@@H]1[C@@]3(C)CC[C@H](O)C(C)(C)[C@@H]3[C@@H](O)C[C@]12C` was what? active

---

Each entry below carries its reported pIC50.
System: HL-60
Experiment: Cytotoxicity against human HL60 cells after 48 hrs by MTT assay
Format: functional, cell-based
Details: HL-60, 48 h
// field semantics: pIC50 = negative decimal log of concentration (mol/L)

compound=CC(C)=CCC[C@](C)(O)[C@H]1CC[C@]2(C)[C@@H]1[C@H](O)C[C@@H]1[C@@]3(C)CC[C@H](O)C(C)(C)[C@@H]3[C@@H](O)C[C@]12C metric=pIC50 assayresult=4.64

What value of pIC50 has been recorded for this entry: `CC(C)=CCC[C@@](C)(O)[C@H]1CC[C@]2(C)[C@@H]1[C@H](O)C[C@@H]1[C@@]3(C)CC[C@H](O)C(C)(C)[C@@H]3CC[C@]12C` 4.63

What value of pIC50 has been recorded for this entry: `CC(C)=CCC[C@](C)(O)[C@H]1CC[C@]2(C)[C@@H]1[C@H](O)C[C@@H]1[C@@]3(C)CC[C@H](O)C(C)(C)[C@@H]3CC[C@]12C` 4.81

What value of pIC50 has been recorded for this entry: `CC(C)=CC/C=C(\C)[C@H]1CC[C@]2(C)[C@@H]1[C@H](O)C[C@@H]1[C@@]3(C)CC[C@H](O)C(C)(C)[C@@H]3[C@@H](O[C@@H]3O[C@H](CO)[C@@H](O)[C@H](O)[C@H]3O[C@@H]3O[C@@H](C)[C@H](O)[C@@H](O)[C@H]3O)C[C@]12C` 4.08

What value of pIC50 has been recorded for this entry: `CC(C)=CC/C=C(\C)[C@H]1CC[C@]2(C)[C@@H]1[C@H](O)C[C@@H]1[C@@]3(C)CC[C@H](O)C(C)(C)[C@@H]3[C@@H](O)C[C@]12C` 4.99

What value of pIC50 has been recorded for this entry: C=C(CCC=C(C)C)[C@H]1CC[C@]2(C)[C@@H]1[C@H](O)C[C@@H]1[C@@]3(C)CC[C@H](O[C@@H]4O[C@H](CO)[C@@H](O)[C@H](O)[C@H]4O[C@@H]4O[C@H](CO)[C@@H](O)[C@H](O)[C@H]4O)C(C)(C)[C@@H]3CC[C@]12C [GISENOSIDE RK1] 4.24

What value of pIC50 has been recorded for this entry: `CC(C)=CC/C=C(\C)[C@H]1CC[C@]2(C)[C@@H]1[C@H](O)C[C@@H]1[C@@]3(C)CC[C@H](O[C@@H]4O[C@H](CO)[C@@H](O)[C@H](O)[C@H]4O)C(C)(C)[C@@H]3[C@@H](O)C[C@]12C` 4.30

---

Tested on: HL-60
Assay: Cytotoxicity against human HL60 cells after 48 hrs by MTT assay
Format: functional, cell-based
Details: HL-60, 48 h
Each entry below carries its reported IC50.
Answer with a number only, understood to be in µM.

Answered examples (4):
mol=C=C(CCC=C(C)C)[C@H]1CC[C@]2(C)[C@@H]1[C@H](O)C[C@@H]1[C@@]3(C)CC[C@H](O)C(C)(C)[C@@H]3[C@@H](O)C[C@]12C unitslabel=µM assayresult=18.3
mol=CCC1=C[C@@H]2CN(C1)Cc1c([nH]c3ccccc13)[C@@](C(=O)OC)(c1cc3c(cc1OC)N(C)[C@H]1[C@@](O)(C(=O)OC)[C@H](OC(C)=O)[C@]4(CC)C=CCN5CC[C@]31[C@@H]54)C2 unitslabel=µM assayresult=11.5
mol=CC(C)=CCC[C@@](C)(O)[C@H]1CC[C@]2(C)[C@@H]1[C@H](O)C[C@@H]1[C@@]3(C)CC[C@H](O)C(C)(C)[C@@H]3[C@@H](O)C[C@]12C unitslabel=µM assayresult=28.7
mol=CC(=O)OC[C@H]1O[C@@H](O[C@H]2C[C@]3(C)[C@H](C[C@@H](O)[C@@H]4[C@@H]([C@@](C)(O)CCC=C(C)C)CC[C@]43C)[C@@]3(C)CC[C@H](O)C(C)(C)[C@H]23)[C@H](O)[C@@H](O)[C@@H]1O unitslabel=µM assayresult=128

Lookup: IC50 / HL-60 / `C=C(C)[C@@H](O)C/C=C(\C)[C@H]1CC[C@]2(C)[C@@H]1[C@H](O)C[C@@H]1[C@@]3(C)CC[C@H](O[C@@H]4O[C@H](CO)[C@@H](O)[C@H](O)[C@H]4O)C(C)(C)[C@@H]3CC[C@]12C` 24.8
